Assay: photocatalytic hydrogen evolution rate (per 5 mg catalyst); higher = more photocatalytic H2 evolution; extreme values may be limits of the assay;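 note: aromatic molecules in triethylamine/methanol/water with Pt photoreduced in situ, irradiated 3 h under a 1 sun AM 1.5G solar simulator (350–1000 nm), H2 quantified by headspace gas chromatography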;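 note: listed molecule itself used as the photocatalyst at 5 mg per vial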
Settings: catalyst mass (mg): 5; Pt cocatalyst (wt%): 3; sacrificial medium: triethylamine/methanol/water 1:1:1
metric: photocatalytic hydrogen evolution rate (µmol/h)

For orientation, consider the following solved cases.
OB(O)c1ccc(Br)nc1
0
C#Cc1cc(C#C)cc(C#C)c1
0

a. OB(O)c1ccc(-c2ccc(B(O)O)cc2)cc1
b. N[C@@H](Cc1ccccc1)C(=O)O
Identify the item whose photocatalytic hydrogen evolution rate is the smaller number: a or b Mark your selection by writing its label. a
(a: 0 µmol/h, b: 0.0539 µmol/h)

I. N#CC(C#N)=c1ccc(=C(C#N)C#N)cc1
II. CCCCCCCCCCCCC1(CCCCCCCCCCCC)c2cc(B(O)O)ccc2-c2ccc(B(O)O)cc21
Between I and II , whose recorded photocatalytic hydrogen evolution rate is greater? Mark your selection by writing its label. II

a. CC(O)c1ccc2ccccc2c1 (stereo not given)
b. O=Cc1cncnc1
Between a and b , whose recorded photocatalytic hydrogen evolution rate is greater? Mark your selection by writing its label. b

I. COC(=O)c1cc(Br)oc1Br
II. O=C1NC(=O)c2cccc3cccc1c23
Identify the item whose photocatalytic hydrogen evolution rate is the smaller number: I or II Mark your selection by writing its label. I
(I: 0 µmol/h, II: 24.5 µmol/h)

I. O=C1C=CC(=O)c2cc3ccccc3cc21
II. CC(=O)c1ccc(N)cc1
Identify the item whose photocatalytic hydrogen evolution rate is the smaller number: I or II Mark your selection by writing its label. I

P. Brc1ccc(-c2ccc(Br)cc2)cc1
Q. N#CCc1ccc(C=O)cc1
R. Brc1ccc(N(c2ccccc2)c2ccc(Br)cc2)cc1
S. O=Cc1c2ccccc2cc2ccccc12
# ascending order, key=photocatalytic hydrogen evolution rate Please respond by ranking the labels in the order requested. P, R, S, Q
(P: 0 µmol/h, R: 0.729 µmol/h, S: 2.06 µmol/h, Q: 4.22 µmol/h)

A. Nc1nc2ccccc2[nH]1
B. c1cc2cccc3c4cccc5cccc(c(c1)c23)c54
C. O=Cc1cc(F)cc(Br)c1
# ascending order, key=photocatalytic hydrogen evolution rate Please respond by ranking the labels in the order requested. A, C, B
(A: 0 µmol/h, C: 0.0795 µmol/h, B: 1.25 µmol/h)

P. O=C(O)c1ccc2cc(C(=O)O)ccc2c1
Q. Brc1cnc2c(ccc3cc(Br)cnc32)c1
R. Fc1c(F)c(F)c(B(c2c(F)c(F)c(F)c(F)c2F)c2c(F)c(F)c(F)c(F)c2F)c(F)c1F
S. O=C1c2cc3ccccc3cc2C(=O)c2cc3ccccc3cc21
T. O=Cc1ccc(Cl)cc1
Order field: photocatalytic hydrogen evolution rate | Direction: descending (largest first) Please respond by ranking the labels in the order requested. S, T, Q, R, P
(S: 6.86 µmol/h, T: 0.964 µmol/h, Q: 0.655 µmol/h, R: 0.0455 µmol/h, P: 0 µmol/h)

====

Test: photocatalytic hydrogen evolution rate (per 5 mg catalyst); higher = more photocatalytic H2 evolution; extreme values may be limits of the assay
Details: catalyst mass (mg): 5; Pt cocatalyst (wt%): 3; sacrificial medium: triethylamine/methanol/water 1:1:1
metric: photocatalytic hydrogen evolution rate (µmol/h)

For orientation, consider the following solved cases.
Nc1ccc(Br)cc1
0
COc1cc(C=O)c(OC)cc1C=O
1.37
COC(=O)c1ccc2cc(C(=O)OC)ccc2c1
0.0623

P. N#Cc1cc(C#N)ncn1
Q. COC(=O)c1ccc(C(=O)OC)cc1
Identify the item whose photocatalytic hydrogen evolution rate is the smaller number: P or Q Mark your selection by writing its label. P
(P: 0 µmol/h, Q: 0.0838 µmol/h)

====

Experiment: photocatalytic hydrogen evolution rate (per 5 mg catalyst); higher = more photocatalytic H2 evolution; extreme values may be limits of the assay
Conditions: catalyst mass (mg): 5; Pt cocatalyst (wt%): 3; sacrificial medium: triethylamine/methanol/water 1:1:1
metric: photocatalytic hydrogen evolution rate (µmol/h)

I. Cn1cnc(C#N)c1C#N
II. C(#Cc1ccccc1)c1ccccc1
III. COc1ccc(B(O)O)cc1C=O
Arrange items by their photocatalytic hydrogen evolution rate values in increasing order. Please respond by ranking the labels in the order requested. II, I, III

P. N#Cc1cc(Br)c(N)c(Br)c1
Q. Brc1ccc(Br)c2nccnc12
R. Brc1ccc2ccc3cccc4ccc1c2c34
Order field: photocatalytic hydrogen evolution rate | Direction: descending (largest first) Please respond by ranking the labels in the order requested. Q, R, P
(Q: 1.37 µmol/h, R: 0.369 µmol/h, P: 0 µmol/h)

1. N#Cc1cc(Br)cs1
2. N#Cc1ccc(-c2ccc(N)nc2)cc1
3. COC(=O)c1cc(C(=O)OC)cc(C(=O)OC)c1
Order field: photocatalytic hydrogen evolution rate | Direction: descending (largest first) Please respond by ranking the labels in the order requested. 2, 3, 1

====

Experiment: photocatalytic hydrogen evolution rate (per 5 mg catalyst); higher = more photocatalytic H2 evolution; extreme values may be limits of the assay
Conditions: catalyst mass (mg): 5; Pt cocatalyst (wt%): 3; sacrificial medium: triethylamine/methanol/water 1:1:1
metric: photocatalytic hydrogen evolution rate (µmol/h)

O=C(O)c1ccc(-c2cc(-c3ccccn3)nc(-c3ccccn3)c2)cc1
0.441

I. Brc1sc(Br)c(Br)c1Br
II. Cc1cncc(C)n1
Between I and II , whose recorded photocatalytic hydrogen evolution rate is greater? Mark your selection by writing its label. II

====

Test: photocatalytic hydrogen evolution rate (per 5 mg catalyst); higher = more photocatalytic H2 evolution; extreme values may be limits of the assay
Conditions: catalyst mass (mg): 5; Pt cocatalyst (wt%): 3; sacrificial medium: triethylamine/methanol/water 1:1:1
metric: photocatalytic hydrogen evolution rate (µmol/h)

For orientation, consider the following solved cases.
O=Cc1cc(F)c(O)c(F)c1
0.191
CCCc1ccc(C(=O)CC#N)cc1
0.0555
O=c1cc(Br)[nH]c(Br)c1
0

a. O=C(O)[C@@H]1CCC(=O)N1C(=O)OCc1ccccc1
b. O=Cc1ccc(N(c2ccc(C=O)cc2)c2ccc(C=O)cc2)cc1
Between a and b , whose recorded photocatalytic hydrogen evolution rate is greater? Mark your selection by writing its label. b

====

Experiment: photocatalytic hydrogen evolution rate (per 5 mg catalyst); higher = more photocatalytic H2 evolution; extreme values may be limits of the assay
Details: catalyst mass (mg): 5; Pt cocatalyst (wt%): 3; sacrificial medium: triethylamine/methanol/water 1:1:1
metric: photocatalytic hydrogen evolution rate (µmol/h)

c1cn[nH]c1
0

I. O=C1CCC(c2ccccc2)CC1
II. N#Cc1c(-n2c3ccccc3c3ccccc32)c(C#N)c(-n2c3ccccc3c3ccccc32)c(-n2c3ccccc3c3ccccc32)c1-n1c2ccccc2c2ccccc21
III. CCOC(=O)c1nc(C(=O)OCC)nc(C(=O)OCC)n1
Order field: photocatalytic hydrogen evolution rate | Direction: descending (largest first) Please respond by ranking the labels in the order requested. II, III, I

====

Test: photocatalytic hydrogen evolution rate (per 5 mg catalyst); higher = more photocatalytic H2 evolution; extreme values may be limits of the assay
Conditions: catalyst mass (mg): 5; Pt cocatalyst (wt%): 3; sacrificial medium: triethylamine/methanol/water 1:1:1
metric: photocatalytic hydrogen evolution rate (µmol/h)

For orientation, consider the following solved cases.
Brc1cc(Br)cc(-c2ccccc2)c1
0
O=C(O)c1ccc(-c2nc(-c3ccc(C(=O)O)cc3)nc(-c3ccc(C(=O)O)cc3)n2)cc1
0.201
N#Cc1cccnc1C#N
0
Brc1ccnc(-c2cc(Br)ccn2)c1
0

1. N#Cc1cncc(Br)n1
2. CC(=O)c1ccc(-c2ccc(C(C)=O)cc2)cc1
3. Brc1ccc2ccccc2c1-c1c(Br)ccc2ccccc12
4. O=Cc1ccccc1C=O
# ascending order, key=photocatalytic hydrogen evolution rate Please respond by ranking the labels in the order requested. 3, 1, 4, 2
(3: 0 µmol/h, 1: 0.0873 µmol/h, 4: 0.491 µmol/h, 2: 3.67 µmol/h)

A. Brc1nnc(Br)s1
B. O=Cc1cccc(-c2ccccn2)c1
Between A and B , whose recorded photocatalytic hydrogen evolution rate is greater? Mark your selection by writing its label. B

====

Assay: photocatalytic hydrogen evolution rate (per 5 mg catalyst); higher = more photocatalytic H2 evolution; extreme values may be limits of the assay
Conditions: catalyst mass (mg): 5; Pt cocatalyst (wt%): 3; sacrificial medium: triethylamine/methanol/water 1:1:1
metric: photocatalytic hydrogen evolution rate (µmol/h)

For orientation, consider the following solved cases.
Cc1c(C)c(C)c(C=O)c(C)c1C
0.844
COc1ccc(B(O)O)cc1
0
C#Cc1ccccc1C#N
0
Nc1cc(C(=O)O)cc(C(=O)O)c1
0
N#Cc1c(F)c(F)c(C#N)c(F)c1F
8.13

a. Brc1cc2ccc3cc(Br)cc4ccc(c1)c2c34
b. O=Cc1ccc(C(=O)O)cc1
c. Cc1ccc(-c2ccc(C=O)cc2)cc1
Order field: photocatalytic hydrogen evolution rate | Direction: descending (largest first) Please respond by ranking the labels in the order requested. c, b, a

====

Assay: photocatalytic hydrogen evolution rate (per 5 mg catalyst); higher = more photocatalytic H2 evolution; extreme values may be limits of the assay
Conditions: catalyst mass (mg): 5; Pt cocatalyst (wt%): 3; sacrificial medium: triethylamine/methanol/water 1:1:1
metric: photocatalytic hydrogen evolution rate (µmol/h)

O=[N+]([O-])c1cc([N+](=O)[O-])c(F)cc1F
0

1. N#Cc1cnccc1Br
2. OCCCCc1ccc2ccc3cccc4ccc1c2c34
3. CC1(C)c2cc(Br)ccc2-c2ccc(Br)cc21
# ascending order, key=photocatalytic hydrogen evolution rate Please respond by ranking the labels in the order requested. 1, 3, 2
